- assay procedure: Cytotoxicity plates without OC43 virus (cell-titer-glo)
- Assay type: cell-based, human
- condition notes: human; HeLa cells without OC43 virus, class symbols
Parameter CC50 at 6 days: see the listing below.

Field: example entries. Status: answers known.
1. COc1cccc2[nH]c(C(=O)N3C[C@@H]4CCC[C@@H]4[C@H]3C(=O)NC(C[C@@H]3CCNC3=O)C(=O)C(N)=O)cc12 (stereo partly drawn) :: > 10 µM
2. COc1cccc2[nH]c(C(=O)N3C[C@@H]4CCC[C@@H]4[C@H]3C(=O)N[C@@H](C[C@@H]3CCNC3=O)C(=O)CO)nc12 :: > 10 µM

Alright, here's another compound for you.
Problem: Field request: CC50 at 6 days | item: O=C1NCC[C@H]1C[C@H](NC(=O)[C@@H]1[C@H]2[C@H]3CC[C@H](C3)[C@H]2CN1C(=O)c1cc2c(Cl)cc(Cl)cc2[nH]1)C(=O)CO
Solution: > 10 µM

---

- System: human beta-coronavirus OC43
- assay procedure: microbe, parasite or virus in culture
- Type: cell-based
- condition notes: Betacoronavirus 1, OC43, HeLa, 144 h, OC43 in HeLa cells, 6 days at 33° C., class symbols; read-out: EC50
Parameter EC50: see the listing below.

1) COc1cccc2[nH]c(C(=O)N3C[C@@H]4CCC[C@@H]4[C@H]3C(=O)N[C@@H](CC3CC(C)(C)NC3=O)C(=O)CO)cc12 (relative stereo) [Compound 70_1] :: 100 to 1000 nM

Problem: Form field - read-out: EC50; system: human beta-coronavirus OC43; submitted item: COc1cc(C(F)(F)F)cc2[nH]c(C(=O)N3C[C@@H]4CCC[C@@H]4[C@H]3C(=O)N[C@@H](C[C@@H]3CCNC3=O)C(=O)CO)cc12 [Compound 163]
Solution: < 100 nM

Problem: Form field - read-out: EC50; system: human beta-coronavirus OC43; submitted item: Cc1cccc2[nH]c(C(=O)N3CCC4(CC4)C[C@H]3C(=O)N[C@@H](C[C@@H]3CCNC3=O)C(=O)C(=O)NC3CC3)cc12 [Compound 169]
Solution: 1000 to 10000 nM

Problem: Form field - read-out: EC50; system: human beta-coronavirus OC43; submitted item: O=C(NCc1ccccc1)C(=O)[C@H](C[C@@H]1CCNC1=O)NC(=O)[C@@H]1C[C@@H](C2CCCCC2)CN1C(=O)c1cc2ccccc2[nH]1 [Compound 20]
Solution: < 100 nM

Problem: Form field - read-out: EC50; system: human beta-coronavirus OC43; submitted item: O=C(NCc1ccccc1)C(=O)C(C[C@@H]1CCNC1=O)NC(=O)[C@@H]1C[C@@H](Oc2ccccc2)CN1C(=O)c1cc2ccccc2[nH]1 (stereo partly drawn) [Compound 5]
Solution: 1000 to 10000 nM

Problem: Form field - read-out: EC50; system: human beta-coronavirus OC43; submitted item: COc1ccc(F)c2[nH]c(C(=O)N3C[C@@H]4CCC[C@@H]4[C@H]3C(=O)N[C@@H](C[C@@H]3CCNC3=O)C(=O)CO)cc12 [Compound 65]
Solution: 100 to 1000 nM

---

Parameter IC50: see the listing below.
- assay target: HRV3C (Human rhinovirus 14, UniProt P03303)
- assay procedure: HRV3C protease assay (duplex, SAMDI-MS)
- Assay type: biochemical, HRV
- condition notes: HRV3C, 30 mins preincubation, class symbols; read-out: HRV IC50

Field: example entries. Status: answers known.
1. COc1cccc2[nH]c(C(=O)N3C[C@@H]4CCCC[C@@H]4[C@H]3C(=O)N[C@@H](C[C@@H]3CCCNC3=O)C(=O)COCc3ccccc3)cc12 (single isomer, unassigned) :: 2000 to 20000 nM
2. O=C(NCc1ccccc1)C(=O)C(C[C@@H]1CCNC1=O)NC(=O)[C@@H]1[C@H]2CC[C@H](C2)N1C(=O)c1cc2ccccc2[nH]1 (stereo partly drawn) :: 2000 to 20000 nM
3. COc1ccc(Br)c2[nH]c(C(=O)N3C[C@@H]4CCC[C@@H]4[C@H]3C(=O)N[C@@H](C[C@@H]3CCNC3=O)C(=O)CO)cc12 :: 2000 to 20000 nM

Problem: Field request: IC50 | item: O=C(NCc1ccccc1)C(=O)C(C[C@@H]1CCNC1=O)NC(=O)[C@@H]1[C@H]2CCC[C@H]2CN1C(=O)c1cc2ccccc2[nH]1 (stereo partly drawn)
Solution: 2000 to 20000 nM

Problem: Field request: IC50 | item: COc1cccc2[nH]c(C(=O)N3C[C@@H]4CCC[C@@H]4[C@H]3C(=O)NC(C[C@@H]3CCNC3=O)C(=O)C(=O)NCc3ccccc3)cc12 (stereo partly drawn)
Solution: 200 to 2000 nM

Problem: Field request: IC50 | item: O=C(NC1CC1)C(=O)[C@H](C[C@@H]1CCNC1=O)NC(=O)[C@@H]1CC2(CCN1C(=O)c1cc3ccccc3s1)CC2
Solution: 200 to 2000 nM
